Known Mean fluorescence intensity of a selection of binders
Biological target: T1, human LAG-3 on cells (HEK293-hLAG-3 stable cell line) (human, UniProt P18627 23-525)
T1 sequence: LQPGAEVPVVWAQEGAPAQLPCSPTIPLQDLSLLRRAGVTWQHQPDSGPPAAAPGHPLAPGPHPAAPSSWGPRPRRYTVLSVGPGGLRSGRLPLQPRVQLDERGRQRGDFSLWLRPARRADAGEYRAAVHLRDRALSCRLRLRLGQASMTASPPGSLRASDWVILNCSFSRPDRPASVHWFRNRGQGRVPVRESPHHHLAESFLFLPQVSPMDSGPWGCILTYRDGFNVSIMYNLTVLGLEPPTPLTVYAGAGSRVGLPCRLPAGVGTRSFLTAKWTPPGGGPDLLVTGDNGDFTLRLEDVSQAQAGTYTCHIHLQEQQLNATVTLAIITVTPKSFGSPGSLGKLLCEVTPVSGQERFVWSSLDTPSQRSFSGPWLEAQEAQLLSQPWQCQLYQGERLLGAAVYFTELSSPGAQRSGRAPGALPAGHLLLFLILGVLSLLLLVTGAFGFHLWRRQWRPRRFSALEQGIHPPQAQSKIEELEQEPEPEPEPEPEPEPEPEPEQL
Test: FACS, HEK293-hLAG-3, antibody 0.013 nM

| BINDER | Mean fluorescence intensity |
| --- | --- |
| 405B8H3 mouse-human chimeric antibody (antibody, V domains shown, also called mAb103-405B8H3) VH: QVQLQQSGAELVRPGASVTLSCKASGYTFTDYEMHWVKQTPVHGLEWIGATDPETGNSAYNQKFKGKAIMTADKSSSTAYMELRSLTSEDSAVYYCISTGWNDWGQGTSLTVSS VL: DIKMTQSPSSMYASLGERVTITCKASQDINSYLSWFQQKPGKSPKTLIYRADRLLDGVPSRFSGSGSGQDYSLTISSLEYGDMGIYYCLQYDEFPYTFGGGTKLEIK | 4 |
| 409D4E10 mouse-human chimeric antibody (antibody, V domains shown, also called mAb112-409D4E10) VH: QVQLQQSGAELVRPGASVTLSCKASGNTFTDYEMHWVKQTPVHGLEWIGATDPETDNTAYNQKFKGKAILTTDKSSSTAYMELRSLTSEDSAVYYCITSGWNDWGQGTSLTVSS VL: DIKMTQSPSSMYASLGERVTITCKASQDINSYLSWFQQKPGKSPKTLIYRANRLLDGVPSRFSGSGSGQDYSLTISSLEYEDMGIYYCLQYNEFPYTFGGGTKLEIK | 4 |
| 409B11E12 mouse-human chimeric antibody (antibody, V domains shown, also called mAb104-409B11E12) VH: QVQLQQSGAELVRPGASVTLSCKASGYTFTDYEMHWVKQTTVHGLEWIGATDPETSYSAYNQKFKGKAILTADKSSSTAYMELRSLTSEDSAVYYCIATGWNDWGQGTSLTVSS VL: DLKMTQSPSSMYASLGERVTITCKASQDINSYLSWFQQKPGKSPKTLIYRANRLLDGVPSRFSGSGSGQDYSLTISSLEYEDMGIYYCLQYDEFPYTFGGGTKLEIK | 4.1 |
| 556F6B8 mouse-human chimeric antibody (antibody, V domains shown, also called mAb123-556F6B8; 556F8B8) VH: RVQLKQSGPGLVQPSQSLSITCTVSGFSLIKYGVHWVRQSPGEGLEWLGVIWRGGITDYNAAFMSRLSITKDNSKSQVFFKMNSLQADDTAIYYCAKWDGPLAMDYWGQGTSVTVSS VL: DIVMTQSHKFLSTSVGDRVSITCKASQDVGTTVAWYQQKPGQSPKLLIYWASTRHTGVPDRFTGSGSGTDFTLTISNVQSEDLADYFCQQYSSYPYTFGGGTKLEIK | 4.2 |
| 105F1E10 mouse-human chimeric antibody (antibody, V domains shown, also called mAb009-105F1E10) VH: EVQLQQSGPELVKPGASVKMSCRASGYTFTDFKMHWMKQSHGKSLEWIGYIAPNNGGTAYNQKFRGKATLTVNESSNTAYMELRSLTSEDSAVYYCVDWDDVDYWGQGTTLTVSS VL: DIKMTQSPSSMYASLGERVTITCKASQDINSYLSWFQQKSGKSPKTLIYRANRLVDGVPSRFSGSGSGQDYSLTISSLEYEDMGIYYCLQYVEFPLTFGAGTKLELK | 3.6 |
